condition-details: in acetonitrile, 298.15 K
readout-name: solubility (mole fraction)

# compound-string, reported-result
data = [
    ("Cc1ccc(CO)cc1", 0.454),
]
